# experimental.target: human AHR (Homo sapiens, UniProt P35869)
# Sequence (P35869 11-848): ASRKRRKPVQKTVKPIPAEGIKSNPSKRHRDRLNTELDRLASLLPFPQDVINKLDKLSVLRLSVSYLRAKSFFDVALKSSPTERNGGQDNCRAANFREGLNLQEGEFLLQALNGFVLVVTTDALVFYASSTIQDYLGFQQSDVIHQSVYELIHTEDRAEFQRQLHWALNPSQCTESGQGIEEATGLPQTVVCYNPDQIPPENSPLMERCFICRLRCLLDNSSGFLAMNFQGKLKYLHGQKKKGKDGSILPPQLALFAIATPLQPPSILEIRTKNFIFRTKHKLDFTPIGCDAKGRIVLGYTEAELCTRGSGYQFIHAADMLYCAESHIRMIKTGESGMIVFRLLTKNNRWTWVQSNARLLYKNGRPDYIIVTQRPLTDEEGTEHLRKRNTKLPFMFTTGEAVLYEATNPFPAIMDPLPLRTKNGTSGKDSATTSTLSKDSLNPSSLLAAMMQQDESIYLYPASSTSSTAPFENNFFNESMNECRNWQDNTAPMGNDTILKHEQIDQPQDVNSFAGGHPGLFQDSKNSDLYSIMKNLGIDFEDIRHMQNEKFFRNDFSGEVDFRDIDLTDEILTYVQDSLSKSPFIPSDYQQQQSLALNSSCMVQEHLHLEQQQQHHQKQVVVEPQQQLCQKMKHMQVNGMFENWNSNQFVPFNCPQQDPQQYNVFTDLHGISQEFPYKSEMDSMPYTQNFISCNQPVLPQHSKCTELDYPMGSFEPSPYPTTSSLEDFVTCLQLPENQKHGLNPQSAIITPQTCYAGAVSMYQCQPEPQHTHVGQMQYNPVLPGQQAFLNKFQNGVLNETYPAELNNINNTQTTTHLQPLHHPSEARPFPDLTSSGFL
# experimental.details: Human AHR agonist luciferase assay (CYP1A1 promoter Nano-luc reporter in HepG2 cells);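 also: stably transfected HepG2 clone, DRE-containing 1200 bp promoter region driving Nano-luc, treated 4 to 24 h with 11-point dilutions in tryptophan-free medium, medium-only wells as baseline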
pEC50: −log10 of the molar value.
observed.property: pEC50

Examples with their reported pEC50 follow.
{"columns": ["molecule", "value"],
 "data": [
  ["COC(=O)c1csc(C(=O)c2c[nH]c3ccccc23)n1 [ITE, reference compound]", "> 6.30"],
  ["COc1ccc2c(C(=O)c3nc(C4(F)CCOC4=O)cs3)c[nH]c2c1 (stereo not shown) [Compound 3-3]", "> 6.30"],
  ["COCCOCCOCCOCC(=O)OCn1cc(C(=O)c2nc(C3CCOC3=O)cs2)c2ccccc21 (stereo not shown) [Compound 14]", "5.70 to 6.30"]
]}

As a next step, examine the molecule that follows.
Test item O=C(c1nc(C2(Cl)CCOC2=O)cs1)c1c[nH]c2cc(F)ccc12 (stereo not shown) [Compound 4-2] ; human AHR (Homo sapiens, UniProt P35869); reported pEC50 was > 6.30

###

Catalogue of compounds with associated pEC50
# experimental.target: mouse AHR (Mus musculus)
# experimental.details: Mouse AHR agonist luciferase assay (6x XRE Nano-luc reporter in Hepa1-6 cells)
pEC50: −log10 of the molar value. Structures can show the parent of a compound that is named as a salt.

Guide cases for pEC50, answers given:
{"columns": ["compound", "experimental.target", "pEC50"],
 "data": [
  ["O=C(c1nc(C2(F)CCOC2=O)cs1)c1c[nH]c2cc(F)ccc12 (centres unmarked) [Compound 3-2]", "mouse AHR (Mus musculus)", "> 7.00"],
  ["CC(C)[C@H](N)C(=O)n1cc(C(=O)c2nc(C3CCOC3=O)cs2)c2ccccc21 (some centres unmarked) [Compound 9, hydrochloride]", "mouse AHR (Mus musculus)", "5.70 to 7.00"],
  ["CC1CC(c2csc(C(=O)c3c[nH]c4cc(F)ccc34)n2)C(=O)O1 (centres unmarked) [Compound 8-2]", "mouse AHR (Mus musculus)", "> 7.00"]
]}

Query compound follows.
So for O=C(c1nc(C2CCOC2=O)cs1)c1c[nH]c2ccc(F)cc12 (centres unmarked) [Compound 1-4] , the logged pEC50 turned out to be > 7.00

###

# experimental.target: rat AHR (Rattus norvegicus)
# Construct: The reporter gene was introduced into a genome of rat hepatoma H-4-II-E cells via lentiviral infection; endogenous in cells
# Sequence (P41738 10-853): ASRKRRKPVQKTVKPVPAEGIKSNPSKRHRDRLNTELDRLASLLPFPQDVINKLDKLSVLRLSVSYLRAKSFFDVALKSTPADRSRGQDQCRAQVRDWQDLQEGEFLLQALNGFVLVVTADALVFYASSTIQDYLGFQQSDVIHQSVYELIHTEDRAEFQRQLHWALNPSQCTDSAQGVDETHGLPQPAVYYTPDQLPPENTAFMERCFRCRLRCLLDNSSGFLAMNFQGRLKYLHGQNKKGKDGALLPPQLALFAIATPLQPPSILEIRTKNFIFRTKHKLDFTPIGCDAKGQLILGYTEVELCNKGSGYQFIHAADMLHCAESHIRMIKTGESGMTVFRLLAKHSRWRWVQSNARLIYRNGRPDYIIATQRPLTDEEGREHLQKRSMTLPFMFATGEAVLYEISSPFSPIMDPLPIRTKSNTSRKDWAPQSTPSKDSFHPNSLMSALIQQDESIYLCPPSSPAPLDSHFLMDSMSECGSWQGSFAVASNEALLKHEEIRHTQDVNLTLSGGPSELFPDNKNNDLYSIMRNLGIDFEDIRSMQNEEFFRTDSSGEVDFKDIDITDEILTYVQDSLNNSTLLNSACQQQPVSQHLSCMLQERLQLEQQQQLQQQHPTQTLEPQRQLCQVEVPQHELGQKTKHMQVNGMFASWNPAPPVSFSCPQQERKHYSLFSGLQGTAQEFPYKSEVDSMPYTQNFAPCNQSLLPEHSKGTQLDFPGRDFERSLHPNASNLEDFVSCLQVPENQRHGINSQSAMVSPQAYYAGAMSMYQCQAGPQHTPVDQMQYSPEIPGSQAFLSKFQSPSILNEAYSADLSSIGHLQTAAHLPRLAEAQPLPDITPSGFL
# experimental.details: Rat AHR agonist luciferase assay (6x XRE Nano-luc reporter in H-4-II-E cells)
# setup.conditions: AHR activation, rat hepatoma H-4-II-E reporter cells, incubated 4 to 24 hours; read-out: H4IIE EC50
pEC50: −log10 of the molar value.
observed.property: pEC50

Worked set:
{"columns": ["compound", "experimental.target", "value"],
 "data": [
  ["CN1CCC(c2csc(C(=O)c3c[nH]c4ccccc34)n2)C1=O (centres unmarked)", "rat AHR (Rattus norvegicus)", "4.00 to 5.70"],
  ["COC(=O)c1csc(C(=O)c2c[nH]c3ccccc23)n1 [ITE, reference compound]", "rat AHR (Rattus norvegicus)", "5.70 to 8.00"],
  ["COc1ccc2[nH]cc(C(=O)c3nc(C4CCN(C)C4=O)cs3)c2c1 (centres unmarked)", "rat AHR (Rattus norvegicus)", "4.00 to 5.70"],
  ["O=C(c1nc(C2(O)CCOC2=O)cs1)c1c[nH]c2cc(F)ccc12 (centres unmarked)", "rat AHR (Rattus norvegicus)", "≥ 8.00"],
  ["O=C(c1nc(C2(O)CCOC2=O)cs1)c1c[nH]c2ccccc12 (centres unmarked)", "rat AHR (Rattus norvegicus)", "≥ 8.00"],
  ["O=C(c1nc(C2CCOC2=O)cs1)c1c[nH]c2ccccc12 (single isomer, unassigned) [Compound 1-isomer-B]", "rat AHR (Rattus norvegicus)", "≥ 8.00"],
  ["COc1ccc2c(C(=O)c3nc(C4CCN(C)C4=O)cs3)c[nH]c2c1 (centres unmarked)", "rat AHR (Rattus norvegicus)", "4.00 to 5.70"],
  ["CN1CCC(c2csc(C(=O)c3c[nH]c4cc(F)ccc34)n2)C1=O (centres unmarked)", "rat AHR (Rattus norvegicus)", "4.00 to 5.70"]
]}

Sure, the documented pEC50 for O=C(c1nc(C2CCOC2=O)cs1)c1c[nH]c2ccccc12 (centres unmarked) [Compound 1] is ≥ 8.00

// recorded pEC50 for COc1ccc2[nH]cc(C(=O)c3nc(C4CCOC4=O)cs3)c2c1 (centres unmarked) : ≥ 8.00

Record O=C(c1nc(C2CCOC2=O)cs1)c1c[nH]c2ccc(F)cc12 (centres unmarked) . Reported pEC50: ≥ 8.00

###

# experimental.target: mouse AHR (Mus musculus, UniProt P30561)
# Sequence (P30561 10-805 limits assumed): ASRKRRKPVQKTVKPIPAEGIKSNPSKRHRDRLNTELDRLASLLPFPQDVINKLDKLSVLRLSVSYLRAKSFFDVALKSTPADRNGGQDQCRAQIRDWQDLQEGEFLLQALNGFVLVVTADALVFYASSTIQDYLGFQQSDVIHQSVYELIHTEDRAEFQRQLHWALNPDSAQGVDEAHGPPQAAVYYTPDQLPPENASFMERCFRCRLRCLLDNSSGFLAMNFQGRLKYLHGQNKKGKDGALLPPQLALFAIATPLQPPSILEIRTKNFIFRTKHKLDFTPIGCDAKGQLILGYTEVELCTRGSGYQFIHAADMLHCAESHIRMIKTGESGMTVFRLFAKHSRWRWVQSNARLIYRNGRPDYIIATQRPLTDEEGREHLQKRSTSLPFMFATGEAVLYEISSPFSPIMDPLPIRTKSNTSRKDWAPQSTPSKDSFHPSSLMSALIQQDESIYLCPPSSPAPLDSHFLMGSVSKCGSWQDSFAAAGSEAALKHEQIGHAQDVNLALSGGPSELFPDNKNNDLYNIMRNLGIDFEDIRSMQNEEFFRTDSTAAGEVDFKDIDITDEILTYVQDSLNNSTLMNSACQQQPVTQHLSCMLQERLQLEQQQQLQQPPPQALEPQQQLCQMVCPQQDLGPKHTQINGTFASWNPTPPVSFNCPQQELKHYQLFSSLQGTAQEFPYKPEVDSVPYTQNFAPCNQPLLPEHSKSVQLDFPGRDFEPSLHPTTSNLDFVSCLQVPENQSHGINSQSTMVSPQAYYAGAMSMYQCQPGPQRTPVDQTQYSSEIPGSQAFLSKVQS
# Sequence (P53762 whole entry partner): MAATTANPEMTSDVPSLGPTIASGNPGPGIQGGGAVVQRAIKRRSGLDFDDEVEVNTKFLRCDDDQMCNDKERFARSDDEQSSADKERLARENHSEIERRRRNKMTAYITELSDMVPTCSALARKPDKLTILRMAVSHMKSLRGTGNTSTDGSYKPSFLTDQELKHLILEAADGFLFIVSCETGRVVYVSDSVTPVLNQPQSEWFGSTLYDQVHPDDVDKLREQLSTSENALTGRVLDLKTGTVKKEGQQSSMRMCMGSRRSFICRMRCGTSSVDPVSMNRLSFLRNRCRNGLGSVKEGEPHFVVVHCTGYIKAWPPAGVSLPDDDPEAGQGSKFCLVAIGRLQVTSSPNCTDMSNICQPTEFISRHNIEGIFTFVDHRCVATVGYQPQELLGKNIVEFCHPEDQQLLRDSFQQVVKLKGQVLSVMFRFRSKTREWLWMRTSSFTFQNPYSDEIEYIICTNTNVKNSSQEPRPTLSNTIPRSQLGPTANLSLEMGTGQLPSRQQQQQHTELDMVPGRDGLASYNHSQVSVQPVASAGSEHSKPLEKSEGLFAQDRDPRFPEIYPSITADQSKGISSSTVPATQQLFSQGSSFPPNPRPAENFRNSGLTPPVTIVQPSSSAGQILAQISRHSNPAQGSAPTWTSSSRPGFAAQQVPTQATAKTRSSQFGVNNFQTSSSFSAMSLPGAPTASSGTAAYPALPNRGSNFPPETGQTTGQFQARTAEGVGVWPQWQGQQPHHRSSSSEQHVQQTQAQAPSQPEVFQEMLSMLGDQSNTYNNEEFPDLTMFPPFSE
# experimental.details: Mouse AHR agonist luciferase assay (6x XRE Nano-luc reporter in Hepa1-6 cells);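 also: stable Hepa1-6 reporter line, 4–24 h exposure, 11-point serial dilution, Nano-Glo luminescence as fold over medium-only baseline, EC50 from four-parameter fit of activation fold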
pEC50: −log10 of the molar value. Where a name gives a salt, the structure may show the parent alone.
Recorded pEC50 values for a group of molecules are listed next.

{"columns": ["molecule", "value"],
 "data": [
  ["COc1ccc2[nH]cc(C(=O)c3nc(C4(O)CCOC4=O)cs3)c2c1 (stereo not shown)", "> 7.00"],
  ["COc1ccc2c(C(=O)c3nc(C4(F)CCOC4=O)cs3)c[nH]c2c1 (stereo not shown)", "> 7.00"],
  ["O=C(c1nc(C2CCOC2=O)cs1)c1cn(P(=O)(O)O)c2ccccc12 (stereo not shown)", "5.70 to 7.00"],
  ["COc1ccc2[nH]cc(C(=O)c3nc(C4CCN(C)C4=O)cs3)c2c1 (stereo not shown)", "> 7.00"]
]}

Short answer on mouse AHR (Mus musculus, UniProt P30561) for O=C(c1nc(C2CCOC2=O)cs1)c1cn(COP(=O)(O)O)c2ccccc12 (stereo not shown) , pEC50: 5.70 to 7.00

Readout pEC50 for CN1CCC(c2csc(C(=O)c3c[nH]c4cc5c(cc34)OCO5)n2)C1=O (stereo not shown) , test system mouse AHR (Mus musculus, UniProt P30561), was > 7.00

Summary: COC(=O)c1csc(C(=O)c2c[nH]c3ccccc23)n1 [ITE, reference compound] , mouse AHR (Mus musculus, UniProt P30561), pEC50 = 5.70 to 7.00

Assay mouse AHR (Mus musculus, UniProt P30561), sample COCCOCCOCCOCC(=O)n1cc(C(=O)c2nc(C3CCOC3=O)cs2)c2ccccc21 (stereo not shown) , pEC50 read: 5.70 to 7.00

# value of pEC50, mouse AHR (Mus musculus, UniProt P30561), item O=C(c1nc(C2(F)CCOC2=O)cs1)c1c[nH]c2ccccc12 (stereo not shown) = > 7.00

Response field pEC50 (mouse AHR (Mus musculus, UniProt P30561)) for item O=C(c1nc(C2(F)CCOC2=O)cs1)c1c[nH]c2ccc(F)cc12 (stereo not shown) : 5.70 to 7.00

Measured pEC50 (mouse AHR (Mus musculus, UniProt P30561)), entry COc1ccc2c(C(=O)c3nc(C4(O)CCOC4=O)cs3)c[nH]c2c1 (stereo not shown) : > 7.00

Measured on mouse AHR (Mus musculus, UniProt P30561), COc1ccc2c(C(=O)c3nc(C4CCOC4=O)cs3)c[nH]c2c1 (stereo not shown) has a documented pEC50 of > 7.00

// assay mouse AHR (Mus musculus, UniProt P30561), entry O=C(c1nc(C2CCOC2=O)cs1)c1c[nH]c2ccccc12 (single isomer, unassigned) [Compound 1-isomer-A] , pEC50 value = > 7.00

Item COc1ccc2c(C(=O)c3nc(C4CC(C)OC4=O)cs3)c[nH]c2c1 (stereo not shown) ; assay system mouse AHR (Mus musculus, UniProt P30561); pEC50 reported as > 7.00

The molecule O=C(c1nc(C2CCOC2=O)cs1)c1c[nH]c2cc(F)ccc12 (stereo not shown) , tested on mouse AHR (Mus musculus, UniProt P30561), showed pEC50 of > 7.00

The measured pEC50 that COc1ccc2[nH]cc(C(=O)c3nc(C4CC(C)OC4=O)cs3)c2c1 (stereo not shown) showed for mouse AHR (Mus musculus, UniProt P30561) is > 7.00

Response field pEC50 (mouse AHR (Mus musculus, UniProt P30561)) for item COCCOCCOCCOCC(=O)OCn1cc(C(=O)c2nc(C3CCOC3=O)cs2)c2ccccc21 (stereo not shown) : 5.70 to 7.00

GET /values?item= O=C(c1nc(C2(O)CCOC2=O)cs1)c1c[nH]c2ccccc12 (stereo not shown) &system= mouse AHR (Mus musculus, UniProt P30561) returns pEC50: > 7.00

Result for O=C(c1nc(C2CCOC2=O)cs1)c1c[nH]c2ccccc12 (stereo not shown) [Compound 1] , tested on mouse AHR (Mus musculus, UniProt P30561), pEC50: > 7.00

For O=C(c1nc(C2(Cl)CCOC2=O)cs1)c1c[nH]c2ccccc12 (stereo not shown) on mouse AHR (Mus musculus, UniProt P30561), measured pEC50 was > 7.00

Entry O=C(c1nc(C2(O)CCOC2=O)cs1)c1c[nH]c2cc(F)ccc12 (stereo not shown) , tested on mouse AHR (Mus musculus, UniProt P30561), has a reported pEC50 of > 7.00

# lookup: O=C(c1nc(C2CCOC2=O)cs1)c1cn(CO)c2ccccc12 (stereo not shown) on mouse AHR (Mus musculus, UniProt P30561), pEC50 = 5.70 to 7.00

The observed pEC50 for O=C1OCC=C1c1csc(C(=O)c2c[nH]c3ccccc23)n1 when tested with mouse AHR (Mus musculus, UniProt P30561) stands at > 7.00

Note to self: pEC50 of CC(C)[C@H](N)C(=O)OCn1cc(C(=O)c2nc(C3CCOC3=O)cs2)c2ccccc21 (stereo partly shown) [Compound 13, hydrochloride] with mouse AHR (Mus musculus, UniProt P30561) was 5.70 to 7.00

Value sought: pEC50, system mouse AHR (Mus musculus, UniProt P30561), item COc1ccc2[nH]cc(C(=O)c3nc(C4CCOC4=O)cs3)c2c1 (stereo not shown) . Result: > 7.00

So the reported pEC50 for O=C(c1nc(C2(O)CCOC2=O)cs1)c1c[nH]c2ccc(F)cc12 (stereo not shown) , on mouse AHR (Mus musculus, UniProt P30561), turned out to be > 7.00

Noted pEC50 for CC1CC(c2csc(C(=O)c3c[nH]c4cc5c(cc34)OCO5)n2)C(=O)O1 (stereo not shown) , tested on mouse AHR (Mus musculus, UniProt P30561): > 7.00

Given the molecule O=C(c1nc(C2CCOC2=O)cs1)c1c[nH]c2cc3c(cc12)OCO3 (stereo not shown) and test system mouse AHR (Mus musculus, UniProt P30561), the measured pEC50 is > 7.00
